The measurements presented in this section are drawn from paper doi:10.1101/2025.07.01.662498.

SYSTEM TESTED: PARP2 WT (human, UniProt Q9UGN5 1-583)
Sequence (Q9UGN5 whole entry): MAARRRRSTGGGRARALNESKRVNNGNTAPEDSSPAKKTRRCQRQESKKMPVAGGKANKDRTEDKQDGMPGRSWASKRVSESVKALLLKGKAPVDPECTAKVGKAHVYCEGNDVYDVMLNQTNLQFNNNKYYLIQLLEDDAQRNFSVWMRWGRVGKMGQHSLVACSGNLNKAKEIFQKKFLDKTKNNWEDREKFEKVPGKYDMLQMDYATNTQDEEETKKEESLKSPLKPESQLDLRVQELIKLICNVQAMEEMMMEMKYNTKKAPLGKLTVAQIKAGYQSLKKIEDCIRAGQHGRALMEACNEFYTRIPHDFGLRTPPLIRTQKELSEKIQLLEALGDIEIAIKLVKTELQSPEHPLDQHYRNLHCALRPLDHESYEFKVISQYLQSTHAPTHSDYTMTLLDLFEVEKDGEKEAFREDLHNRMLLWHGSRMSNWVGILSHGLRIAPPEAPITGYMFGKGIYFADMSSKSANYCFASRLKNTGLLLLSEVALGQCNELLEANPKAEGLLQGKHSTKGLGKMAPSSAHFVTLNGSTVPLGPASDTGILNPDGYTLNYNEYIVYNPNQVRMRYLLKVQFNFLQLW
TEST METHOD NOTES: fluorescence polarization; HPF1 not mentioned for this value; 10 mM HEPES pH 8.0, 150 mM NaCl, 0.1 mg/ml BSA, 0.1 mM TCEP, 0.1 mM EDTA, 25 C (FP)
TEST CONDITIONS: protein: recombinant; tags: His6-TEV, tag cleaved; nicked dumbbell: two hairpins with TTTT loops, one strand
REPORTED METRIC: Kd (nM)
Numeric only. Scale: nM

Param item = GGAAGTCTTTTGACTTCCTCGAAGCTTTTGCTTCGA (structured_DNA, 5'-phosphate) [fluorescein-labelled nicked dumbbell DNA, 5'-phosphate] ; retrieve measured Kd. 4.8
